B1: Probable E3 ubiquitin-protein ligase MID2, residues 191 to 235; numbered along this chain, Q9UJV3 (parent)
chain: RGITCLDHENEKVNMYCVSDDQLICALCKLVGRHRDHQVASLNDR

- Variants of: B1
- measurement-protocol: abundance fitness (aPCA) (normalised: wild type 0, dead -1); higher = more abundant; growth selection in yeast, the domain comes from the species named
- details: Homo sapiens
readout-type: abundance fitness
Output: the number by itself.

Guide cases for abundance fitness, answers given:
- sequence-text: "RGITCLDHENEKVNMYCVSDDQLICALCKMVGRHRDHQVASLNDR [L30M]"
  abundance fitness: 0.003
- sequence-text: "RGITCLDHENPKVNMYCVSDDQLICALCKLVGRHRDHQVASLNDR [E11P]"
  abundance fitness: -0.838
- sequence-text: "RGITCLDHENEKVNMYCVSMDQLICALCKLVGRHRDHQVASLNDR [D20M]"
  abundance fitness: -1.19
- sequence-text: "RGITCLDHENEKVNMYCVSDDQLICALCKCVGRHRDHQVASLNDR [L30C]"
  abundance fitness: 0.026

Can you share its abundance fitness? I mean this variant: RGITCLDHENEKVNMYCVSDDQLICALCKLIGRHRDHQVASLNDR [V31I]
-0.091

May I ask what abundance fitness has been recorded for RGITCLDHENEKVNMNCVSDDQLICALCKLVGRHRDHQVASLNDR [Y16N] ?
-0.251

abundance fitness for RGITCLDHENEKVNMYCVSDDQLICALCKLVGRHRDHQVAALNDR [S41A] ?
-0.08
